This collection of values is drawn from the supplement of paper PMC10567573.

B1: LRRC45 (parent)
chain: DLSAANEKNLLLQNQVDELERKFR

variants of: B1; test: protein stability index of a GFP-peptide fusion (GPS, HEK-293T) (PSI 1-6); higher = more stable; details: c terminus: a fixed tail appended;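 note: lentivirally expressed fusions sorted by FACS into six bins by GFP to DsRed ratio, PSI derived from sequencing read proportions per bin multiplied by bin number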
measured_quantity: protein stability index

>>> print(df.to_string())
    mutation_descriptor  observed
 0                 L12Y      4.08
 1                 L12T      3.64
 2                 N14I      3.05
 3                 L10C      4.07
 4                  D1P      4.17
 5                 F23G       4.6
 6                  A5M      3.62
 7                 E20G      3.22
 8                 L19P      3.78
 9                 L12P      4.18
10                  S3H      4.13
11                  D1A       4.6
12                  A4T      4.06
13                 F23H      3.98
14                 E20M      2.81
15                 D17F      2.81
16                  D1N       4.4
17                 L12N      4.01
18                 L11R      4.04
19                  N9F      3.98
20                 E20L      3.23
21                  S3R      4.26
22                 N14R      3.76
23                  K8D      4.21
24                 V16F      3.38
25                 L19N      4.27
26                 R21D      4.28
27                  D1L      3.93
28                  E7V      3.46
29                 Q13K      4.32
30                  S3D      4.64
31                  N6E      4.69
32                 V16P      4.09
33                 E18F      3.16
34                  N6Q      4.73
35                  K8F      3.85
36                 V16Q      4.29
37                 L10R      4.06
38                 Q13C      4.03
39                 L19H      4.12
40                 R21F      3.57
41                  K8P      4.35
42                 L11P      4.32
43                 E20V      3.75
44                 E20N      3.27
45                 Q15P      3.71
